Target: EGFR L858R/T790M/C797S (Homo sapiens, UniProt P00533, C797S/L858R/T790M)
Sequence (P00533 25-1210 T790M/C797S/L858R): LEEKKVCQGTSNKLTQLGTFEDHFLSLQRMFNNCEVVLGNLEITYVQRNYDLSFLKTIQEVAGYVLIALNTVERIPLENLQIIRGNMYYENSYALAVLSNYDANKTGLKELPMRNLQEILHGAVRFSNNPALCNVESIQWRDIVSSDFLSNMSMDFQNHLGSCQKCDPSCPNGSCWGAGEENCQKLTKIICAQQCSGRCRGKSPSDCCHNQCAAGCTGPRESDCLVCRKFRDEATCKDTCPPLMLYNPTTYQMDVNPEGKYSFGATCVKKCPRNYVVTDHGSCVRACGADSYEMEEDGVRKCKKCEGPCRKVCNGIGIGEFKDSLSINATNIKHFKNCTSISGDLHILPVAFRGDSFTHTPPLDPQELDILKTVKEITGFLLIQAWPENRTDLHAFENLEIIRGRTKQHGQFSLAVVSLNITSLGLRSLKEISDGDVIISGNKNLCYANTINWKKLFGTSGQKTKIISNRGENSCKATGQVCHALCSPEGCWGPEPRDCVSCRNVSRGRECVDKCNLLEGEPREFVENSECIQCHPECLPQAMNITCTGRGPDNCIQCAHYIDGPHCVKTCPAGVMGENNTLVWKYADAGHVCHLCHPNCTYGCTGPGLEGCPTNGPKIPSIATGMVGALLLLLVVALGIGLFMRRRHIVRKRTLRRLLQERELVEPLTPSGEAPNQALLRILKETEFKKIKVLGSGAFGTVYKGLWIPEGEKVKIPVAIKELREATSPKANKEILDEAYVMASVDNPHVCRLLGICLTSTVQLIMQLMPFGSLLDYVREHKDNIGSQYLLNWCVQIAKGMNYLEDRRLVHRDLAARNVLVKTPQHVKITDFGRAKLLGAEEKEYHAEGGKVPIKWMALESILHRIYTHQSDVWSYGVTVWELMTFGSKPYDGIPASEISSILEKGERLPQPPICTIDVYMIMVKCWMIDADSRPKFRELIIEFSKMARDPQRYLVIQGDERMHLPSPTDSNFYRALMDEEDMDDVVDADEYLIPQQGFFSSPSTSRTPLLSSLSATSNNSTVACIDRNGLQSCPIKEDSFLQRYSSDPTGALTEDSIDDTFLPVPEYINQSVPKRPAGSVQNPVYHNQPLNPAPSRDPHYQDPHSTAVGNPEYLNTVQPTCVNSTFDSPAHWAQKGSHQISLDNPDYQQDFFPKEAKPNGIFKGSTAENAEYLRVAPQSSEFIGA
Assay: Biochemical EGFR kinase assay (Lance Ultra TR-FRET), triple mutant L858R/T790M/C797S
Details: IC50 L858R/T790M/C797S (nM) 100 μM ATP, 100 μM ATP
Description: Biochemical EGFR kinase assays were conducted using Lance Ultra time-resolved fluorescence resonance energy transfer (TR-FRET) technology from Perkin-Elmer. […] Each kinase reactions were incubated at room temperature for 1 hour and then stopped by the addition of 4 μL of stop solution (10 mM EDTA). […] After 60 minutes incubation at room temperature the LANCE signal was measured on an EnVision Multilabel Reader (Perkin-Elmer). […]

{"compoundStructureString": "CC(C)(O)[C@H]1CC[C@@H](Nc2cc(Nc3ccnc(-c4cnn(S(=O)(=O)C5CC5)c4)n3)ncc2-c2cc3n(n2)CCCC3)CC1", "IC50, nM": 2.4}
{"compoundStructureString": "O=S(=O)(C1CC1)n1cc(-c2nccc(Nc3cc(N[C@H]4CC[C@@H](NCC(F)F)CC4)c(-c4ccn(C(F)F)n4)cn3)n2)cn1", "IC50, nM": 1}
{"compoundStructureString": "CN[C@H]1CC[C@@H](Nc2cc(Nc3ccnc(-c4cnn(S(=O)(=O)C5CC5)c4)n3)ncc2-c2ccco2)CC1", "IC50, nM": 0.7}
{"compoundStructureString": "CN(C)S(=O)(=O)n1cc(-c2nccc(Nc3cc(N[C@H]4CC[C@@](C)(O)CC4)c(-c4cc(C(F)(F)F)n(C)n4)cn3)n2)cn1", "IC50, nM": 3.9}
{"compoundStructureString": "Cn1ccc(-c2cnc(Nc3ccnc(-c4cnn(S(=O)(=O)C5CC5)c4)n3)cc2NCC2(CO)COC2)n1", "IC50, nM": 0.2}
{"compoundStructureString": "O=S(=O)(C1CC1)n1cc(-c2nccc(Nc3cc(N[C@H]4CCC[C@H](O)C4)c(-c4ccn(C(F)F)n4)cn3)n2)cn1", "IC50, nM": 0.9}

###

Target: EGFR del19/T790M/C797S (Homo sapiens, UniProt P00533, C797S/DEL746-750/T790M)
Sequence (P00533 with tags, fused parts or gaps DEL746-750/T790M/C797S): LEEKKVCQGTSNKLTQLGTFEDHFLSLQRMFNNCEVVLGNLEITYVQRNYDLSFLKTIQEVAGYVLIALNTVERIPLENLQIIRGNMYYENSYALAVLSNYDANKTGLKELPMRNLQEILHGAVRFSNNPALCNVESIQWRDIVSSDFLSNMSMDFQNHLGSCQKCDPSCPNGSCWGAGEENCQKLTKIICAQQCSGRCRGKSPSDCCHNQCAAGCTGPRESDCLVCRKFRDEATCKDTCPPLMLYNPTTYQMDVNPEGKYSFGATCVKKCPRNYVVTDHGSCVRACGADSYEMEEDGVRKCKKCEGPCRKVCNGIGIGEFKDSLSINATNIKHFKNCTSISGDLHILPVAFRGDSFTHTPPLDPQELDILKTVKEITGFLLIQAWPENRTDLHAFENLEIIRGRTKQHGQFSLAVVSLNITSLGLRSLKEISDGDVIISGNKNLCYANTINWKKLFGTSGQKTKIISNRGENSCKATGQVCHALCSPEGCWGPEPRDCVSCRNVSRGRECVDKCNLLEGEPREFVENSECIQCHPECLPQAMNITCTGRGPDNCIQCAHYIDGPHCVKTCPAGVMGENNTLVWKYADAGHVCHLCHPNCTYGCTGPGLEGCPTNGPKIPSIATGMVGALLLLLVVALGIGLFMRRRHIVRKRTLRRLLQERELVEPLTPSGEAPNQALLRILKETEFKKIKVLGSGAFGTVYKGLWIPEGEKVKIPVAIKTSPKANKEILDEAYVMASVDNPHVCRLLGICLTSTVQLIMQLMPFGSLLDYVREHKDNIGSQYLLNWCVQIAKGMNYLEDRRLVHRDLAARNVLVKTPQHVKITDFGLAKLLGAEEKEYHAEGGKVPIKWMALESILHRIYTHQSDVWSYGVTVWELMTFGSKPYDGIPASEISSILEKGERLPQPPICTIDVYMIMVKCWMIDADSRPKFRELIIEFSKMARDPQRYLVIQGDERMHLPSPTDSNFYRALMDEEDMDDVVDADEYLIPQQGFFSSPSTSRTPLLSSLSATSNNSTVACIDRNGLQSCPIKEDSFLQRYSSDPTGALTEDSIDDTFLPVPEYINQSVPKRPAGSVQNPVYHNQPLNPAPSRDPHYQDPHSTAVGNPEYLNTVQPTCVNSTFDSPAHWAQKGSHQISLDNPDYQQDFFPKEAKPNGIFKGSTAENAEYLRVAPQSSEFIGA
Assay: Biochemical EGFR kinase assay (Lance Ultra TR-FRET), triple mutant del19/T790M/C797S
Settings: IC50 del19/T790M/C797S (nM) 100 μM ATP, 100 μM ATP
measuredMetric: IC50 (nM)

{"compoundStructureString": "CC(C)(O)c1nc(-c2cnc(Nc3ccnc(-c4cnn(S(=O)(=O)C5CC5)c4)n3)cc2N[C@H]2CC[C@@H](O)CC2)cs1", "unitsText": "nM", "endpointResult": 0.7}
{"compoundStructureString": "CN(C)C(=O)[C@H]1CC[C@@H](Nc2cc(Nc3ccnc(-c4cnn(S(=O)(=O)C5CC5)c4)n3)ncc2-c2ccn(C(F)F)n2)CC1", "unitsText": "nM", "endpointResult": 0.5}
{"compoundStructureString": "CN(C)C[C@H]1CC[C@@H](Nc2cc(Nc3ccnc(-c4cnn(S(=O)(=O)C5CC5)c4)n3)ncc2-c2ccn(CC(F)(F)F)n2)CC1", "unitsText": "nM", "endpointResult": 0.1}

###

Target: EGFR L858R/C797S (Homo sapiens, UniProt P00533, C797S/L858R)
Sequence (P00533 25-1210 C797S/L858R): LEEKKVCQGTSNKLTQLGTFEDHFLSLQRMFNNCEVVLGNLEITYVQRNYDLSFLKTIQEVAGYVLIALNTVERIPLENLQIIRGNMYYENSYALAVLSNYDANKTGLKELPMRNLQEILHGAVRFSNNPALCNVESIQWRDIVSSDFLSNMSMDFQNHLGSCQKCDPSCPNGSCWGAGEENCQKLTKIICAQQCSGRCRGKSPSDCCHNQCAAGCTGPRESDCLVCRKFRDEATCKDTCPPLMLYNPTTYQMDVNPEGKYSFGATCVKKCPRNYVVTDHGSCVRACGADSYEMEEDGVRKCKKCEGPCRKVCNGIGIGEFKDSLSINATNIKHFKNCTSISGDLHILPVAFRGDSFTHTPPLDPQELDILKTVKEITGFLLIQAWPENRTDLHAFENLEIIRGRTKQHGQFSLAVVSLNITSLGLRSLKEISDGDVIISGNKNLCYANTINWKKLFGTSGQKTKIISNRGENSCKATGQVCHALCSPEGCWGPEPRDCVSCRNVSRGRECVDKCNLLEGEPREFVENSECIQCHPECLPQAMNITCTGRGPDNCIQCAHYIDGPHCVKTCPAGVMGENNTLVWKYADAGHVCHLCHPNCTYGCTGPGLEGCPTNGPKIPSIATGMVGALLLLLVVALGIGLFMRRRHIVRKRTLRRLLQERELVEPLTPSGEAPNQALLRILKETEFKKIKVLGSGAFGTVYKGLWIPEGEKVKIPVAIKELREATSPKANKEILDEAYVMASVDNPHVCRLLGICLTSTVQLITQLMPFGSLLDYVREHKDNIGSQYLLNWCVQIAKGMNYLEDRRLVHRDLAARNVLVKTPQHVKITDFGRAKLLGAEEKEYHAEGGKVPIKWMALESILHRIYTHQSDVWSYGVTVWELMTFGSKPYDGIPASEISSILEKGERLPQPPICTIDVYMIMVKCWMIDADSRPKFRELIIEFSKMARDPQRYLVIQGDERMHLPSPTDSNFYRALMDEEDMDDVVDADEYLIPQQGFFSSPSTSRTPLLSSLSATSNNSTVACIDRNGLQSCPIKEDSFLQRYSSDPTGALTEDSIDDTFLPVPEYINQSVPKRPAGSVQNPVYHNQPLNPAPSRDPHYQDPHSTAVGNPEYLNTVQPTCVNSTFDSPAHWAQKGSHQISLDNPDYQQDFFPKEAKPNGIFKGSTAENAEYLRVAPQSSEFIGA
Assay: Biochemical EGFR kinase assay (Lance Ultra TR-FRET), double mutant L858R/C797S
Details: Km ATP; read-out: IC50 L858R/C797S (nM) Km ATP
Experimental: Biochemical EGFR kinase assays were conducted using Lance Ultra time-resolved fluorescence resonance energy transfer (TR-FRET) technology from Perkin-Elmer. […] Each kinase reactions were incubated at room temperature for 1 hour and then stopped by the addition of 4 μL of stop solution (10 mM EDTA). […] After 60 minutes incubation at room temperature the LANCE signal was measured on an EnVision Multilabel Reader (Perkin-Elmer). […]
measuredMetric: log10 IC50 (log10 of the value in nM)

{"compound": "O=S(=O)(C1CC1)n1cc(-c2nccc(Nc3cc(N[C@H]4CCC[C@H](O)C4)c(-c4ccn(C(F)F)n4)cn3)n2)cn1", "systemUnderTest": "EGFR L858R/C797S (Homo sapiens, UniProt P00533, C797S/L858R)", "log10 IC50": -0.05}
{"compound": "CC(C)(CO)Cn1cc(-c2nccc(Nc3cc(N[C@H]4CC[C@@](C)(O)CC4)c(-c4ccn(C(F)F)n4)cn3)n2)cn1", "systemUnderTest": "EGFR L858R/C797S (Homo sapiens, UniProt P00533, C797S/L858R)", "log10 IC50": 2.03}
{"compound": "Cc1nn(CC(F)(F)F)cc1-c1nccc(Nc2cc(N[C@H]3CC[C@@H](CCO)CC3)c(-c3ccn(C(F)F)n3)cn2)n1", "systemUnderTest": "EGFR L858R/C797S (Homo sapiens, UniProt P00533, C797S/L858R)", "log10 IC50": 0.90}
{"compound": "Cc1ccn(-c2cnc(Nc3ccnc(-c4cnn(S(=O)(=O)C5CC5)c4)n3)cc2N[C@H]2CC[C@@](C)(O)CC2)n1", "systemUnderTest": "EGFR L858R/C797S (Homo sapiens, UniProt P00533, C797S/L858R)", "log10 IC50": 0.48}
{"compound": "O=S(=O)(C1CC1)n1cc(-c2nccc(Nc3cc(NC4CCC(CCO)CC4)c(-c4ccn(C(F)F)n4)cn3)n2)cn1 (stereo not shown)", "systemUnderTest": "EGFR L858R/C797S (Homo sapiens, UniProt P00533, C797S/L858R)", "log10 IC50": 0.00}
{"compound": "O=S(=O)(C1CC1)n1cc(-c2nccc(Nc3cc(N[C@H]4CC[C@@H](CO)CC4)c(-c4ccn(C5CC5)n4)cn3)n2)cn1", "systemUnderTest": "EGFR L858R/C797S (Homo sapiens, UniProt P00533, C797S/L858R)", "log10 IC50": -0.52}
{"compound": "O=S(=O)(C1CC1)n1cc(-c2nccc(Nc3cc(N[C@H]4CC[C@@H](CO)CC4)c(-c4cc5n(n4)CCCC5)cn3)n2)cn1", "systemUnderTest": "EGFR L858R/C797S (Homo sapiens, UniProt P00533, C797S/L858R)", "log10 IC50": 0.04}
{"compound": "CC1(O)CCC(Nc2cc(Nc3ccnc(-c4cnn(S(=O)(=O)C5CCOC5)c4)n3)ncc2-c2ccn(C(F)F)n2)CC1 (stereo not shown)", "systemUnderTest": "EGFR L858R/C797S (Homo sapiens, UniProt P00533, C797S/L858R)", "log10 IC50": 0.00}
{"compound": "CN(C)CC1CCC(Nc2cc(Nc3ccnc(-c4cnn(S(=O)(=O)C5CC5)c4)n3)ncc2-c2ccn(C3COC3)n2)CC1 (stereo not shown)", "systemUnderTest": "EGFR L858R/C797S (Homo sapiens, UniProt P00533, C797S/L858R)", "log10 IC50": -1.00}
{"compound": "O=S(=O)(C1CC1)n1cc(-c2nccc(Nc3cc(NCC4CCC(O)C4)c(-c4ccn(C(F)F)n4)cn3)n2)cn1 (stereo not shown)", "systemUnderTest": "EGFR L858R/C797S (Homo sapiens, UniProt P00533, C797S/L858R)", "log10 IC50": -0.15}
{"compound": "O=S(=O)(C1CC1)n1cc(-c2nccc(Nc3cc(N[C@H]4CCC[C@H](CO)C4)c(-c4ccn(C(F)F)n4)cn3)n2)cn1", "systemUnderTest": "EGFR L858R/C797S (Homo sapiens, UniProt P00533, C797S/L858R)", "log10 IC50": 0.43}
{"compound": "C[C@]1(O)CC[C@@H](Nc2cc(Nc3nc(-c4cnn(S(=O)(=O)C5CC5)c4)ncc3F)ncc2-c2ccn(C(F)F)n2)CC1", "systemUnderTest": "EGFR L858R/C797S (Homo sapiens, UniProt P00533, C797S/L858R)", "log10 IC50": 1.05}
{"compound": "CN[C@H]1CC[C@H](CNc2cc(Nc3ccnc(-c4cnn(S(=O)(=O)C5CC5)c4)n3)ncc2-c2ccn(C(F)F)n2)CC1", "systemUnderTest": "EGFR L858R/C797S (Homo sapiens, UniProt P00533, C797S/L858R)", "log10 IC50": 0.00}

###

The entries below come with measured IC50 values attached.
Target: EGFR wildtype (WT) (Homo sapiens, UniProt P00533)
Sequence (P00533 25-1210): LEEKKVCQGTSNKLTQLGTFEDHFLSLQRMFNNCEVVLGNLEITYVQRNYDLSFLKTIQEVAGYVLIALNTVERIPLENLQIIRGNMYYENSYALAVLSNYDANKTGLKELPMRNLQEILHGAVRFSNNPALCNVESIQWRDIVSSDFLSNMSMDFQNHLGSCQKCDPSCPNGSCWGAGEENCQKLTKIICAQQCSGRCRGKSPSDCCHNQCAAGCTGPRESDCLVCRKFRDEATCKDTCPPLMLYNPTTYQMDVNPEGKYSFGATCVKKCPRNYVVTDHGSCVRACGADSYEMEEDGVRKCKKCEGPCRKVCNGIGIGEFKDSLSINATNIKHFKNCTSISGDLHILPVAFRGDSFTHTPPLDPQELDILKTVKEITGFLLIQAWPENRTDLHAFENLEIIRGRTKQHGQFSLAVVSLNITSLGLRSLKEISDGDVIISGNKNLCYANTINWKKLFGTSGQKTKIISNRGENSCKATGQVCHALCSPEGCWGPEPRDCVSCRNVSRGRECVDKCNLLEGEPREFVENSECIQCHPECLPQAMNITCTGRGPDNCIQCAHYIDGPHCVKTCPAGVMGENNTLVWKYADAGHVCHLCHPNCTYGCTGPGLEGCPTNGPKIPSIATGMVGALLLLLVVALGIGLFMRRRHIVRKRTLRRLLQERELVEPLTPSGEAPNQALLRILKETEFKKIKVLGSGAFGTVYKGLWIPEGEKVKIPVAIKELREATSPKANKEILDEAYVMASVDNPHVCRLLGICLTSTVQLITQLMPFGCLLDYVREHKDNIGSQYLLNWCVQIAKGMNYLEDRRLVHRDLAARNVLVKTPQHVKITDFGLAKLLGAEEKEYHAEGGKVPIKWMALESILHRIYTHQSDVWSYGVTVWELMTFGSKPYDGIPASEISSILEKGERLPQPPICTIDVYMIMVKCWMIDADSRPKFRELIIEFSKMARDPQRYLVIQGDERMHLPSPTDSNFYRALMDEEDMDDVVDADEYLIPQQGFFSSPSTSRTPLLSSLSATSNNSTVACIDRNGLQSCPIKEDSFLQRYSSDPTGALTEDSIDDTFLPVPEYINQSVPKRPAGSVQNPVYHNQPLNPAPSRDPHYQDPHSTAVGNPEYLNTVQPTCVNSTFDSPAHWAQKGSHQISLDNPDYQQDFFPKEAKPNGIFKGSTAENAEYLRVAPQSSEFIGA
Test: Biochemical EGFR kinase assay (Lance Ultra TR-FRET), wildtype
Details: IC50 WT (nM) 100 μM ATP, 100 μM ATP
measuredMetric: IC50 (nM)

{"compound": "O=S(=O)(C1CC1)n1cc(-c2nccc(Nc3cc(N[C@H]4CC[C@](O)(CO)CC4)c(-c4cc5n(n4)CCCC5)cn3)n2)cn1 [Example 275]", "unitsText": "nM", "rel": "=", "endpointResult": 2940}
{"compound": "Cn1ccc(-c2cnc(Nc3ccnc(-c4cnn(S(=O)(=O)C5CC5)c4)n3)cc2N[C@H]2CCC[C@H](CO)C2)n1 [Example 233]", "unitsText": "nM", "rel": "=", "endpointResult": 3140}
{"compound": "Cn1nc(-c2cnc(Nc3ccnc(-c4cnn(S(=O)(=O)C5CC5)c4)n3)cc2N[C@H]2CC[C@@](C)(O)CC2)cc1C(C)(C)O [Example 293]", "unitsText": "nM", "rel": "=", "endpointResult": 183}
{"compound": "O=S(=O)(C1CC1)n1cc(-c2nccc(Nc3cc(N[C@H]4CC[C@@H](CO)CC4)c(-c4ccn(C5COC5)n4)cn3)n2)cn1 [Example 282]", "unitsText": "nM", "rel": "=", "endpointResult": 370}
{"compound": "O=S(=O)(C1CC1)n1cc(-c2nccc(Nc3cc(NC4CCC(F)(CO)CC4)c(-c4ccn(C(F)F)n4)cn3)n2)cn1 (stereo not shown) [Example 190]", "unitsText": "nM", "rel": ">", "endpointResult": 10000}
{"compound": "Cn1nc(-c2cnc(Nc3nc(-c4cnn(S(=O)(=O)C5CC5)c4)ncc3F)cc2N[C@H]2CC[C@@](C)(O)CC2)cc1C(F)(F)F [Example 328]", "unitsText": "nM", "rel": ">", "endpointResult": 10000}
{"compound": "Cn1nc(-c2cnc(Nc3ccnc(-c4cnn(S(=O)(=O)C5CC5)c4)n3)cc2N[C@H]2CC[C@@H](CCO)CC2)cc1C(F)(F)F [Example 262]", "unitsText": "nM", "rel": "=", "endpointResult": 1880}
{"compound": "Cc1cc(-c2cnc(Nc3ccnc(-c4cnn(S(=O)(=O)C5CC5)c4)n3)cc2N[C@H]2CC[C@@](C)(O)CC2)nn1C [Example 291]", "unitsText": "nM", "rel": "=", "endpointResult": 941}
{"compound": "CN1CCN(c2nc(-c3cnc(Nc4ccnc(-c5cnn(S(=O)(=O)C6CC6)c5)n4)cc3N[C@H]3CC[C@@](C)(O)CC3)cs2)CC1 [Example 121]", "unitsText": "nM", "rel": "=", "endpointResult": 8920}
{"compound": "CN(C)C[C@H]1CC[C@@H](Nc2cc(Nc3ccnc(-c4cnn(S(=O)(=O)C5CC5)c4)n3)ncc2-c2cc3n(n2)CCCC3)CC1 [Example 277]", "unitsText": "nM", "rel": "=", "endpointResult": 47.5}
{"compound": "O=S(=O)(C1CC1)n1cc(-c2nccc(Nc3cc(NC4CCC5(CC4)CNC5)c(-c4ccn(C(F)F)n4)cn3)n2)cn1 [Example 27]", "unitsText": "nM", "rel": "=", "endpointResult": 162}
{"compound": "O=S(=O)(C1CC1)n1cc(-c2nccc(Nc3cc(N[C@H]4CC[C@@H](O)C4)c(-c4ccn(C(F)F)n4)cn3)n2)cn1 [Example 14]", "unitsText": "nM", "rel": "=", "endpointResult": 7510}
{"compound": "CN(C)CCCn1ccc(-c2cnc(Nc3ccnc(-c4cnn(S(=O)(=O)C5CC5)c4)n3)cc2N[C@H]2CC[C@@H](NCCF)CC2)n1 [Example 301]", "unitsText": "nM", "rel": "=", "endpointResult": 1370}
